log10 of Kd for UniProt Q96SW2, merged from several publications.
measurement type: log10 of Kd (log10 of the value in µM)

> print(dat)
                                    compound     target.desc  obs.value
 1  CNC(=O)c1ccc2c(c1)nc(C(C)C)n2-c1ccc2[nH]c(=O)[nH]c2c1  UniProt Q96SW2      -1.96
 2     Cn1c(=O)[nH]c2ncc(C(=O)Nc3ccccc3)cc21  UniProt Q96SW2      -3.00
 3  CNC(=O)c1ccc(C(=O)Nc2ccc3[nH]c(=O)[nH]c3c2)cn1  UniProt Q96SW2      -0.92
 4  O=C1CCC(NC(=O)c2c[nH]c3ccccc23)C(=O)N1 (stereo not shown)  UniProt Q96SW2      -1.55
 5  O=C(Nc1ccc2[nH]c(=O)[nH]c2c1)c1ccccc1-c1ccncc1  UniProt Q96SW2      -1.10
 6  CC(=O)Nc1ccc(CC(=O)N[C@@H]2CCC(=O)NC2=O)cc1  UniProt Q96SW2      -1.07
 7  CNC(=O)c1nc2ccccc2n1-c1ccc2[nH]c(=O)[nH]c2c1  UniProt Q96SW2      -0.89
 8        O=c1[nH]c2ccc(CCCc3ccccc3)nc2[nH]1  UniProt Q96SW2      -1.39
 9  O=C1CC[C@@H](NC(=O)c2ccc3ccccn23)C(=O)N1  UniProt Q96SW2      -2.70
10       O=C1CC[C@H](NC(=O)Cc2ccccc2)C(=O)N1  UniProt Q96SW2      -1.57
11   O=C1CC[C@H](NC(=O)c2coc3ccccc23)C(=O)N1  UniProt Q96SW2      -3.00
12  O=c1[nH]c2cc(-c3ccccc3OCc3ccccc3)cnc2[nH]1  UniProt Q96SW2      -1.85
13  O=c1[nH]c2ccc(-n3c(-c4ccnc5ccccc45)nc4ccccc43)cc2[nH]1  UniProt Q96SW2      -1.57
14  O=C1CC[C@@H](NC(=O)N2CCCc3cccnc32)C(=O)N1  UniProt Q96SW2      -0.19
15  O=C1CC[C@H](NC(=O)C2CCc3cccnc32)C(=O)N1 (stereo partly shown)  UniProt Q96SW2      -1.60
16       O=C1Cc2cc(C(=O)N3CCc4ccccc43)cnc2N1  UniProt Q96SW2      -1.89
17  CC(C)c1nc2cc(OCc3ccccc3)ccc2n1-c1ccc2[nH]c(=O)[nH]c2c1  UniProt Q96SW2      -0.71
18  CNC(=O)c1ccc(Nc2ccc3[nH]c(=O)[nH]c3c2)c(N)c1  UniProt Q96SW2      -0.23
19  CN(C(=O)c1c[nH]c2ccccc12)C1CCC(=O)NC1=O (stereo not shown)  UniProt Q96SW2      -2.52
20  CNS(=O)(=O)c1ccc(CC(=O)Nc2ccc3[nH]c(=O)[nH]c3c2)cc1  UniProt Q96SW2      -3.00
21      O=c1[nH]c2ccc(-c3ccc(F)cc3F)cc2[nH]1  UniProt Q96SW2      -1.09
22  CN(C(=O)N1CCc2ccccc21)C1CCC(=O)NC1=O (stereo not shown)  UniProt Q96SW2      -1.66
23  O=C1CC[C@@H](NC(=O)c2cnn3cccnc23)C(=O)N1  UniProt Q96SW2      -2.15
24  CCCN1Cc2ccccc2C1C(=O)NC1CCC(=O)NC1=O (stereo not shown)  UniProt Q96SW2      -1.24
25  O=C1CC[C@@H](NC(=O)N2CCCc3ccccc32)C(=O)N1  UniProt Q96SW2      -1.72
26  COc1ccccc1N1CCN(C(=O)Nc2ccc3[nH]c(=O)[nH]c3c2)CC1  UniProt Q96SW2      -1.85
27     O=C(Nc1ccccc1)c1cnc2[nH]c(=O)[nH]c2c1  UniProt Q96SW2      -2.30
28  O=C(NC1CCN(Cc2ccccc2)CC1)c1ccc2[nH]c(=O)[nH]c2c1  UniProt Q96SW2      -2.40
29  COC(=O)c1ccc(S(=O)(=O)Nc2ccc3[nH]c(=O)[nH]c3c2)cc1  UniProt Q96SW2      -1.09
30        O=C(Nc1ccccc1)c1cnc2[nH]c(=O)oc2c1  UniProt Q96SW2      -1.62
31  O=C(c1cnc2[nH]c(=O)[nH]c2c1)N1CCCc2ccccc21  UniProt Q96SW2      -1.70
32  Cn1cncc1-c1cc(-c2nc3ccccc3n2-c2ccc3c(c2)n(C)c(=O)n3C)c2ccccc2n1  UniProt Q96SW2      -2.15
33  COc1cccc(-c2ncccc2C(=O)Nc2ccc3[nH]c(=O)[nH]c3c2)c1  UniProt Q96SW2      -0.96
34  Cc1sc2c(c1C)C(c1ccc(Cl)cc1)=N[C@@H](CC(=O)NCCOCCOCCOCC(=O)N1CC[C@@H](C(=O)N[C@H]3CCC(=O)NC3=O)c3ccccc31)c1nnc(C)n1-2  UniProt Q96SW2      -2.10
